// provenance: patent US10899738B2

target: UniProt O00255
assayDetails: biochemical
Format: binding
measurementContext: FP competitive binding; menin protein 4 nM, FAM-MM2 probe 2 nM; read-out: Menin Binding Affinity IC50

{"columns": ["compound", "IC50, nM"],
 "data": [
  ["CNC(=O)O[C@@H]1CCC[C@H]1C(C#N)(c1ccccc1)C1CCN(CC2(C)CN(c3ccc(S(=O)(=O)c4cnn(C)c4)cc3)C2)CC1 (mixture of isomers)", 2100],
  ["CNC(=O)O[C@@H]1CCC[C@H]1C(C#N)(c1ccccc1)C1CCN(CC2CN(c3ccc(C(C)(C)C)cc3)C2)CC1 (mixture of isomers)", 776],
  ["CC(COc1ccc(C#N)cc1)CN1CCC(C(C#N)(c2ccccc2)C2CCCC2)CC1 (stereo not drawn)", 294000]
]}

====

target: menin protein (Homo sapiens (Human))
Sequence (O00255 whole entry): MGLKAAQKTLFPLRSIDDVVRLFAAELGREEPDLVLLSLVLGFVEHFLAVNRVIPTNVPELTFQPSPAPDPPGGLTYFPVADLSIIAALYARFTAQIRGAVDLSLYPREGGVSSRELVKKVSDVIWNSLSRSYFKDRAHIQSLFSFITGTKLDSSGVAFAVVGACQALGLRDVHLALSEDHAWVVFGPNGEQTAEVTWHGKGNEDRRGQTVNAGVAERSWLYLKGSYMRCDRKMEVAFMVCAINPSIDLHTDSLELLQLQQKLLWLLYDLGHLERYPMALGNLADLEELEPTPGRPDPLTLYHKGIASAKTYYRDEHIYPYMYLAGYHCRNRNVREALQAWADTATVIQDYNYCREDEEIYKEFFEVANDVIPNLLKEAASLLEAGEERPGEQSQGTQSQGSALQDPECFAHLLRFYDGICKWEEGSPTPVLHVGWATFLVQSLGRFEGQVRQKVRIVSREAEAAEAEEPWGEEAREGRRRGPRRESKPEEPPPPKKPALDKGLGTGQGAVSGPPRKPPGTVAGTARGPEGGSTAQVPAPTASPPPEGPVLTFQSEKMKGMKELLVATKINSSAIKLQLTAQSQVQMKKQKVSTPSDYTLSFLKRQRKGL
assayDetails: biochemical
Format: binding
measurementContext: FP competitive binding; menin protein 4 nM, FAM-MM2 probe 2 nM; read-out: Menin Binding Affinity IC50
metric: log10 IC50 (log10 of the value in µM)

{"columns": ["compound", "metric", "endpointResult"],
 "data": [
  ["CNC(=O)O[C@H]1CCC[C@@H]1C(C#N)(c1ccccc1)C1CCN(CC2CN(c3ccc(C(=O)OC)cc3)C2)CC1 (mixture of isomers) [compound 373]", "log10 IC50", -0.95],
  ["O=S(=O)(c1ccccc1)c1ccc(N2CC(CN3CCC(C4(C5CCCC5)NCCc5ccccc54)CC3)C2)cc1 (stereo not drawn) [compound 149]", "log10 IC50", -1.92],
  ["CCN1Cc2ccccc2C(C2CCN(CC3CN(c4ccc(S(=O)(=O)c5cnn(C)c5)cc4)C3)CC2)([C@H]2CCC[C@@H]2NC(=O)NC)C1 (mixture of isomers) [Cpd. No. 291]", "log10 IC50", -2.15],
  ["N#CC(Cc1ccncc1)(c1ccccc1)C1CCN(CC2CN(c3ccc(S(=O)(=O)c4ccncc4)cc3)C2)CC1 (stereo not drawn) [compound 343]", "log10 IC50", 0.94],
  ["CNC(=O)N[C@H]1CCC[C@@H]1C(CN)(c1ccccc1)C1CCN(CC2CN(c3ccc(S(=O)(=O)c4ccccc4)cc3)C2)CC1 (mixture of isomers) [compound 321]", "log10 IC50", -2.40],
  ["COC(=O)N[C@@H]1CCC[C@H]1C(C#N)(c1ccccc1)C1CCN(CC2CN(c3ccc(S(=O)(=O)c4ccncc4)cc3)C2)CC1 (mixture of isomers) [Cpd. No. 346]", "log10 IC50", -0.24]
]}

====

target: menin protein (Homo sapiens (Human))
assayDetails: biochemical
Assay type: binding
measurementContext: FP competitive binding; menin protein 4 nM, FAM-MM2 probe 2 nM; read-out: Menin Binding Affinity IC50
pIC50: −log10 of the molar value.
Would you mind labelling by pIC50? At or over 7 is TRUE, under is FALSE.

{"columns": ["molecule", "category"],
 "data": [
  ["CN(C)C(=O)N[C@H]1CCC[C@@H]1C(C#N)(c1ccccc1)C1CCN(CC2CN(c3ccc(S(=O)(=O)c4ccncc4)cc3)C2)CC1 (mixture of isomers)", "TRUE"],
  ["CC(=O)O[C@@H]1CCC[C@H]1C(C#N)(c1ccccc1)C1CCN(CC2CN(c3ccc(S(=O)(=O)c4ccncc4)cc3)C2)CC1 (mixture of isomers) [compound 186]", "FALSE"],
  ["O=S(=O)(c1ccccc1)c1ccc(N2CC(CN3CCC(C(CN4CCCC4)(c4ccccc4)[C@H]4C=CCC4)CC3)C2)cc1 (stereo partly drawn)", "TRUE"],
  ["CNC(=O)O[C@H]1CCC[C@@H]1C(C#N)(c1ccccc1)C1CCN(CC2CN(c3ccc(C(F)(F)F)cc3)C2)CC1 (mixture of isomers)", "TRUE"],
  ["CCN1Cc2ccccc2C(C2CCCC2)(C2CCN(CC3CN(c4ccc(S(=O)(=O)C5CC5)cc4C)C3)CC2)C1 (stereo not drawn)", "FALSE"]
]}
